growth values, listed per item
- Test system: MCF7 breast
- Protocol Notes: NCI-60 one-dose screen, 48 h (100 = growth as untreated, 0 = no growth, -100 = all killed)
- Details: 10 µM unless noted
About 83,000 compounds went through this panel and 20% of them were active in at least one assay; those are over-represented in the sample as a whole. The source made the active and inactive calls. The calls were made as follows: active = growth percent below 10; inactive = the rest.
Metric Name: growth

C#CCN1C(=O)c2ccccc2N(CC#C)C12CCN(Cc1cn(CC(=O)Nc3ccccc3C(N)=O)nn1)CC2 : 83.8% (inactive)
COC(=O)c1ccc2c(c1)NC(=O)[C@@H]1CCCN21 : 73.9% (inactive)
CC1(C)CC[C@]2(c3nnc(-c4ccncc4)o3)CC[C@]3(C)C(=CC[C@@H]4[C@@]5(C)CCC(=O)C(C)(C)[C@@H]5CC[C@]43C)[C@@H]2C1 : 64.6% (inactive)
COc1cc2c(Nc3ccc(NC(=O)Nc4ccc(Cl)c(C(F)(F)F)c4)c(Cl)c3)ncnc2cc1OCCCN1CCN(C)CC1 : -77.4% (active)
CN1CCN(CC#CCOC(=O)CNC(=O)[C@]23CCC(C)(C)C[C@H]2C2=CC[C@@H]4[C@@]5(C)CC[C@H](O)C(C)(C)[C@@H]5CC[C@@]4(C)[C@]2(C)CC3)CC1 : 72% (inactive)
NC(N)=NC(N)=Nc1cc2ccccc2c2ccccc12 : 2.2% (active)
NC(=O)C(O)(c1ccccc1)c1ccccc1 : 91.5% (inactive)
Cc1nccc2c3ccc(OCc4cn(-c5ccc(Cl)cc5)nn4)cc3n(CC(C)C)c12 : 13% (inactive)
CCOC(=O)c1ccc(Nc2ncnc3ccc(NC(=O)c4ccccc4)cc23)cc1 : 75.7% (inactive)
O=C(CN1N=C(c2ccc(F)cc2)CCC1=O)Nc1nccs1 : 93.8% (inactive)
COc1ccc(C(=O)c2cc(OC)c(OC)c(OC)c2)cc1OC(=O)C(Cl)(Cl)Cl : 9.81% (active)
CCCCc1ccc(N=Nc2ccc(OCC[N+](C)(C)C)cc2)cc1 : 85.1% (inactive)
c1cc(CNC23CC4CC(CC(C4)C2)C3)cc(C[N+](Cc2cccc(CNC34CC5CC(CC(C5)C3)C4)c2)(Cc2cccc(CNC34CC5CC(CC(C5)C3)C4)c2)Cc2cccc(CNC34CC5CC(CC(C5)C3)C4)c2)c1 (stereo unspecified) : 2.14% [42 µM] (active)
OCCNc1nc(NCCO)nc(Nc2ccc(C3=NN(c4cc(Cl)cc(Cl)c4)C(c4ccc(Cl)cc4)C3)cc2)n1 (stereo unspecified) : 3.94% (active)
O=C(/C(=C/c1ccc([N+](=O)[O-])cc1)SCc1ccccc1)c1ccc(Cl)cc1 : 7.72% (active)
COc1ccc(-c2nnc(N3CCN(C(=O)CN4CCN(c5ccccc5)CC4)CC3)nc2-c2ccc(OC)cc2)cc1 : 11.7% (inactive)
C=C(C)[C@@H]1CC[C@]2(C(=O)N=C=S)CC[C@]3(C)[C@H](CC[C@@H]4[C@@]5(C)CCC(=O)C(C)(C)[C@@H]5CC[C@]43C)[C@@H]12 : 16.4% (inactive)
O=C1c2ccccc2C(=O)c2c1oc1c2c(=O)[nH]c2ccc(Cl)cc21 : 0.704% (active)
O=C(/C(=C/c1ccc([N+](=O)[O-])cc1)SCc1ccc(F)cc1)c1ccc(Cl)cc1 : -21.8% (active)
COc1cc(/C=C/C(=O)/C=C/c2cc3ccc(Cl)cc3[nH]c2=O)ccc1O : 57.8% (inactive)
Nc1c(C(=O)c2ccccc2)sc2nc(-c3cc4ccccc4o3)cc(-c3ccc(Cl)cc3)c12 : 92% (inactive)
Cc1c(Cl)cccc1NC(=O)c1sc2nc3c(cc2c1N)CCCCCC3 : 15.1% (inactive)
C=C1C(=O)O[C@H]2[C@H]1CC/C(COC(=O)CCCCCCCCC(=O)OC/C1=C/CC[C@@]3(C)O[C@H]3[C@H]3OC(=O)C(=C)[C@@H]3CC1)=C\CC[C@@]1(C)O[C@@H]21 : -37% (active)
S=c1ssnc1-c1cc2ccccc2o1 : 65.5% (inactive)
COC(=O)c1ccc2c(c1)n(Cc1ccc3ccccc3c1)c[n+]2Cc1ccc2ccccc2c1 : 29.2% (inactive)
Cc1cccc2nc3c(n12)C(=O)C(=O)c1ccccc1-3 : 47.9% (inactive)
C#Cc1ccccc1NC(=O)c1sc2nc3c(cc2c1N)CCCCCC3 : 58.4% (inactive)
CCOC(=O)NCCc1nc2c([nH]1)c(=O)n(C)c(=O)n2C : 95.4% (inactive)
COc1ccc(-c2nc(C#N)c(NCC(c3ccc(Cl)cc3)N3CCCCC3)o2)cc1 (stereo unspecified) : 80.6% (inactive)
COC(=O)/C=C1\SC(=Nc2cccc(Cl)c2)N(CCc2c[nH]c3ccccc23)C1=O : 20.1% (inactive)
COc1ccc(-n2cc(COc3ccc4c5ccnc(C)c5n(CC(C)C)c4c3)nn2)cc1 : 54.3% (inactive)
O=C(NCc1ccccc1)c1ccc2c(c1)NC(=O)[C@@H]1CCCN21 : 85.4% (inactive)
COc1ccc(C(=O)c2cc(OC)c(OC)c(OC)c2)cc1OC(=O)CCl : 15.9% (inactive)
C=C(C)[C@@H]1CC[C@]2(C(=O)NCCCO)CC[C@]3(C)[C@H](CC[C@@H]4[C@@]5(C)CCCNC(C)(C)[C@@H]5CC[C@]43C)[C@@H]12 : 41.5% (inactive)
Cc1cccc(C)c1Nc1nnc(-c2ccc(F)cc2)o1 : 96.6% (inactive)
CC(C)(C)c1ccc2oc(=O)n(SC(Cl)(Cl)Cl)c2c1 : 86.4% (inactive)
